Test system: Streptococcus pyogenes SSI-9
assay text: Antibacterial activity assay of bead-derived peptides (three concentrations)
Assay type: cell-based
Set-up: key: +++: inhibition by the 640-fold diluted peptide solution; ++: inhibition by the 160-fold diluted solution; +: inhibition by the 40-fold diluted solution; -: no inhibition
condition info: S. pyogenes, bead-derived peptide solution, three concentrations
Where a SMILES comes first, the peptide text is derived from it. [ ]: non-standard residue; d: D form. The star is where a group is joined. NHCH2CH2OH = OCCN*; For = O=C*
measured endpoint: antibacterial activity

CC(C)C[C@@H](NC(=O)[C@H](C)NC(=O)[C@H](NC(=O)[C@H](C)NC(=O)CNC(=O)[C@@H](NC=O)C(C)C)[C@H](C)O)C(=O)N[C@H](C(=O)N[C@H](CC(C)C)C(=O)N[C@@H](Cc1c[nH]c2ccccc12)C(=O)N[C@@H](C(=O)N[C@@H](Cc1c[nH]c2ccccc12)C(=O)N[C@@H](C(=O)N[C@@H](Cc1c[nH]c2ccccc12)C(=O)N[C@H](CC(C)C)C(=O)N[C@@H](Cc1c[nH]c2ccccc12)C(=O)NCCO)C(C)C)C(C)C)C(C)C [compound 2242] (For-VGA[dT]A[dL]V[dL]W[dV]W[dV]W[dL]W-NHCH2CH2OH)	-
CC(C)C[C@@H](NC(=O)[C@H](Cc1c[nH]c2ccccc12)NC(=O)[C@@H](CC(C)C)NC(=O)[C@H](Cc1c[nH]c2ccccc12)NC(=O)[C@H](NC(=O)[C@H](Cc1c[nH]c2ccccc12)NC(=O)[C@H](NC(=O)[C@@H](NC(=O)[C@H](NC(=O)[C@H](C)NC(=O)[C@H](NC(=O)[C@H](C)NC(=O)CNC(=O)[C@@H](NC=O)C(C)C)[C@H](C)O)C(C)C)C(C)C)C(C)C)[C@H](C)O)C(=O)N[C@@H](Cc1c[nH]c2ccccc12)C(=O)NCCO [compound 3226] (For-VGA[dT]A[dV]V[dV]W[dT]W[dL]W[dL]W-NHCH2CH2OH)	-

----------
System: Streptococcus pyogenes SSI-9
assay text: Antibacterial activity assay of bead-derived peptides (three concentrations)
Format: cell-based
Parameters: key: +++: inhibition by the 640-fold diluted peptide solution; ++: inhibition by the 160-fold diluted solution; +: inhibition by the 40-fold diluted solution; -: no inhibition
condition info: S. pyogenes, bead-derived peptide solution, three concentrations
Where a SMILES comes first, the peptide text is derived from it. [ ]: non-standard residue; d: D form. The star is where a group is joined. NHCH2CH2OH = OCCN*; For = O=C*
measured endpoint: antibacterial activity

Illustrative cases are given below, each with its answer.
CC(C)C[C@@H](NC(=O)[C@H](Cc1c[nH]c2ccccc12)NC(=O)[C@H](NC(=O)[C@@H](NC(=O)[C@H](NC(=O)[C@H](C)NC(=O)[C@H](NC(=O)[C@H](C)NC(=O)CNC(=O)[C@@H](NC=O)C(C)C)C(C)C)C(C)C)C(C)C)[C@H](C)O)C(=O)N[C@@H](Cc1c[nH]c2ccccc12)C(=O)N[C@H](CC(C)C)C(=O)N[C@@H](Cc1c[nH]c2ccccc12)C(=O)N[C@@H](C(=O)N[C@@H](Cc1c[nH]c2ccccc12)C(=O)NCCO)C(C)C [compound 1523] (For-VGA[dV]A[dV]V[dT]W[dL]W[dL]W[dV]W-NHCH2CH2OH)	+
CC(C)C[C@@H](NC(=O)[C@H](C)NC(=O)[C@H](NC(=O)[C@H](C)NC(=O)CNC(=O)[C@@H](NC=O)C(C)C)C(C)C)C(=O)N[C@H](C(=O)N[C@@H](C(=O)N[C@@H](Cc1c[nH]c2ccccc12)C(=O)N[C@H](CC(C)C)C(=O)N[C@@H](Cc1c[nH]c2ccccc12)C(=O)N[C@@H](C(=O)N[C@@H](Cc1c[nH]c2ccccc12)C(=O)N[C@H](CC(C)C)C(=O)N[C@@H](Cc1c[nH]c2ccccc12)C(=O)NCCO)[C@H](C)O)C(C)C)C(C)C [compound 11374] (For-VGA[dV]A[dL]V[dV]W[dL]W[dT]W[dL]W-NHCH2CH2OH)	+
CNC(=O)C[C@@H](NC(=O)[C@H](Cc1c[nH]c2ccccc12)NC(=O)[C@@H](CC(C)C)NC(=O)[C@@H](NC(=O)[C@@H](CC(C)C)NC(=O)[C@H](C)NC(=O)[C@H](NC(=O)[C@H](C)NC(=O)CNC(=O)[C@@H](NC=O)C(C)C)C(C)C)C(C)C)C(=O)N[C@@H](Cc1c[nH]c2ccccc12)C(=O)N[C@@H](C(=O)N[C@@H](Cc1c[nH]c2ccccc12)C(=O)N[C@@H](C(=O)N[C@@H](Cc1c[nH]c2ccccc12)C(=O)NCCO)C(C)C)C(C)C [compound 1152] (For-VGA[dV]A[dL]V[dL]W[dD](NHMe)W[dV]W[dV]W-NHCH2CH2OH)	-
CC(C)C[C@@H](NC(=O)[C@H](C)NC(=O)CNC(=O)[C@@H](NC=O)C(C)C)C(=O)N[C@@H](C)C(=O)N[C@H](CC(C)C)C(=O)N[C@H](C(=O)N[C@@H](C(=O)N[C@@H](Cc1c[nH]c2ccccc12)C(=O)N[C@H](CC(C)C)C(=O)N[C@@H](Cc1c[nH]c2ccccc12)C(=O)N[C@H](CC(C)C)C(=O)N[C@@H](Cc1c[nH]c2ccccc12)C(=O)N[C@@H](C(=O)N[C@@H](Cc1c[nH]c2ccccc12)C(=O)NCCO)C(C)C)[C@H](C)O)C(C)C [compound 4690] (For-VGA[dL]A[dL]V[dT]W[dL]W[dL]W[dV]W-NHCH2CH2OH)	+
CC(C)C[C@@H](NC(=O)[C@H](C)NC(=O)[C@H](NC(=O)[C@H](C)NC(=O)CNC(=O)[C@@H](NC=O)C(C)C)C(C)C)C(=O)N[C@H](C(=O)N[C@@H](C(=O)N[C@@H](Cc1c[nH]c2ccccc12)C(=O)N[C@H](CC(C)C)C(=O)N[C@@H](Cc1c[nH]c2ccccc12)C(=O)N[C@@H](C(=O)N[C@@H](Cc1c[nH]c2ccccc12)C(=O)N[C@H](CC(C)C)C(=O)N[C@@H](Cc1c[nH]c2ccccc12)C(=O)NCCO)[C@H](C)O)[C@H](C)O)C(C)C [compound 4195] (For-VGA[dV]A[dL]V[dT]W[dL]W[dT]W[dL]W-NHCH2CH2OH)	-

What value of antibacterial activity has been recorded for this entry: CC(C)C[C@@H](NC(=O)[C@H](Cc1c[nH]c2ccccc12)NC(=O)[C@H](NC(=O)[C@H](Cc1c[nH]c2ccccc12)NC(=O)[C@H](NC(=O)[C@@H](NC(=O)[C@H](NC(=O)[C@H](C)NC(=O)[C@H](NC(=O)[C@H](C)NC(=O)CNC(=O)[C@@H](NC=O)C(C)C)C(C)C)C(C)C)C(C)C)[C@H](C)O)C(C)C)C(=O)N[C@@H](Cc1c[nH]c2ccccc12)C(=O)N[C@@H](C(=O)N[C@@H](Cc1c[nH]c2ccccc12)C(=O)NCCO)C(C)C [compound 10506] (For-VGA[dV]A[dV]V[dT]W[dV]W[dL]W[dV]W-NHCH2CH2OH)
-

Can you look up the measured antibacterial activity of CC(C)C[C@@H](NC(=O)[C@H](C)NC(=O)CNC(=O)[C@@H](NC=O)C(C)C)C(=O)N[C@@H](C)C(=O)N[C@H](CC(C)C)C(=O)N[C@H](C(=O)N[C@H](CC(C)C)C(=O)N[C@@H](Cc1c[nH]c2ccccc12)C(=O)N[C@H](CC(C)C)C(=O)N[C@@H](Cc1c[nH]c2ccccc12)C(=O)N[C@@H](C(=O)N[C@@H](Cc1c[nH]c2ccccc12)C(=O)N[C@H](CC(C)C)C(=O)N[C@@H](Cc1c[nH]c2ccccc12)C(=O)NCCO)C(C)C)C(C)C [compound 9473] (For-VGA[dL]A[dL]V[dL]W[dL]W[dV]W[dL]W-NHCH2CH2OH) for me?
-

Recorded antibacterial activity for CNC(=O)C[C@@H](NC(=O)[C@H](C)NC(=O)CNC(=O)[C@@H](NC=O)C(C)C)C(=O)N[C@@H](C)C(=O)N[C@H](CC(C)C)C(=O)N[C@H](C(=O)N[C@@H](C(=O)N[C@@H](Cc1c[nH]c2ccccc12)C(=O)N[C@H](CC(C)C)C(=O)N[C@@H](Cc1c[nH]c2ccccc12)C(=O)N[C@H](CC(C)C)C(=O)N[C@@H](Cc1c[nH]c2ccccc12)C(=O)N[C@H](CC(C)C)C(=O)N[C@@H](Cc1c[nH]c2ccccc12)C(=O)NCCO)C(C)C)C(C)C [compound 8038] (For-VGA[dD](NHMe)A[dL]V[dV]W[dL]W[dL]W[dL]W-NHCH2CH2OH) , please?
-

Entry source: paper PMC7531004
